Hey, just so you know, these numbers are from patent US20250368745A1.

# tested target: T1, cynomolgus IL-18BP (cynomolgus monkey)
# T1 construct: also called cyno IL-18BP; cyIL-18BP
# T1 chain: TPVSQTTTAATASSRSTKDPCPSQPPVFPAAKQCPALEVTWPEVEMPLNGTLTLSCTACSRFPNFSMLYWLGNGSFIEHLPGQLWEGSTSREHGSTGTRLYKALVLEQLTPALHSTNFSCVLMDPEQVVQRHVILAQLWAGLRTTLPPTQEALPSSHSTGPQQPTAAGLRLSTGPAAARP
# procedure summary: BLI, apparent KD
observation type: Kd (nM)
The reply should be a number in nM, with the unit left off.

Reference set (2 entries):
SA301a HC-H52G (antibody, name in Kabat numbering, V domains shown, IgG1 kappa) VH: QVQLQESGPGLVKPSQTLSLTCTVSGYSITSDYNSHWIRQPPGKGLEWIGYIGYSGSTNYNPSLKSRVTISRDTSKNQFSLKLSSVTAADTAVYYCARNYGSIYVNYFDYWGQGTLVTVSS VL: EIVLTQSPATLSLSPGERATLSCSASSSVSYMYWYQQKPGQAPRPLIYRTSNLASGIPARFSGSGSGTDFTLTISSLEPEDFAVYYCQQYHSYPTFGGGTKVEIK :: 1.66
SA301a HC-I51F (antibody, name in Kabat numbering, V domains shown, IgG1 kappa) VH: QVQLQESGPGLVKPSQTLSLTCTVSGYSITSDYNSHWIRQPPGKGLEWIGYFHYSGSTNYNPSLKSRVTISRDTSKNQFSLKLSSVTAADTAVYYCARNYGSIYVNYFDYWGQGTLVTVSS VL: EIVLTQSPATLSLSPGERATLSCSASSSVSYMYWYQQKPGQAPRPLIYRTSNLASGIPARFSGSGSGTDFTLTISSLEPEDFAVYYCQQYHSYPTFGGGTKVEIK :: 1.55

# Kd lookup, item SA301a HC-Y50A (antibody, name in Kabat numbering, V domains shown, IgG1 kappa) VH: QVQLQESGPGLVKPSQTLSLTCTVSGYSITSDYNSHWIRQPPGKGLEWIGAIHYSGSTNYNPSLKSRVTISRDTSKNQFSLKLSSVTAADTAVYYCARNYGSIYVNYFDYWGQGTLVTVSS VL: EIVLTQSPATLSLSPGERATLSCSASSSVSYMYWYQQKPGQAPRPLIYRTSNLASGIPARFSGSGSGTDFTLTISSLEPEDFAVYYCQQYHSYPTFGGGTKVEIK
3.8
